# TESTED_TARGET: Fyn (UniProt P06241)
# Sequence (P06241 whole entry, looked up): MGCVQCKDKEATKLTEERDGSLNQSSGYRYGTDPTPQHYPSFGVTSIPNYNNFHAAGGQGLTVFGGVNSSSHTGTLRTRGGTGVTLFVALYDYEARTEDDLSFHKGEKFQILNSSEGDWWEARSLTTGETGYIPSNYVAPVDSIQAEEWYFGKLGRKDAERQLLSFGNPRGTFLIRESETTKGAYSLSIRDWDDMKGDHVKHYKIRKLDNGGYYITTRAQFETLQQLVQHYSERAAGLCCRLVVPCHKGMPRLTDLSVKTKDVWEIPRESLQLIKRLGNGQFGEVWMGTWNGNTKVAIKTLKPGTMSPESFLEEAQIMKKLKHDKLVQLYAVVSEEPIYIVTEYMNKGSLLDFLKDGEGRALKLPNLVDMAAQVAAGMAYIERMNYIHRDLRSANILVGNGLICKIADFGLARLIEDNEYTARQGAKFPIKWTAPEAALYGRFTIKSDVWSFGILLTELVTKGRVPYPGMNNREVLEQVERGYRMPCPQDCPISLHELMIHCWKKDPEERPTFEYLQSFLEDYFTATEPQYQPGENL
# PROCEDURE_SUMMARY: phosphorylation enrichment, bacterial display (enrichment ratio); higher = better substrate or ligand; peptides without Tyr show the background;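 further: 11-residue human phosphosite peptides and single-mutation variants displayed on the E. coli surface, counted by deep sequencing, each peptide's frequency after selection divided by its frequency in the unselected input library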;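 further: frequency after pTyr selection over input frequency; kinase dosed for 20-30% of maximal phosphorylation in three min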
Bucketed by reported phosphorylation enrichment, buckets being LOW: < 0.5; MID: ≥ 0.5 and < 0.6; HIGH: ≥ 0.6

Please review the following examples before continuing.
| SEQ_STRING | TESTED_TARGET | CLASSIFICATION |
| --- | --- | --- |
| TIQIMFGCDVG [HLA-A_Y123_Y123F] | Fyn (UniProt P06241) | MID |
| HIILLYIFLKN [STXBP1_Y411_R406H] | Fyn (UniProt P06241) | LOW |

Lookup: Category of DSDTDYGSGYP [RNASEH2A_Y206_L202S] , please.
Found: HIGH

Lookup: Category of IGEVVYQWAVM [GRIN2A_Y502_R504W] , please.
Found: HIGH

Lookup: Category of PLDGEYSTLQI [TP53_Y327_F328S] , please.
Found: HIGH

Lookup: Category of NGRTGYVLQPE [PLCG2_Y1036] , please.
Found: LOW

Lookup: Category of FDDIAHIRKTL [PIK3CA_Y1021_Y1021H] , please.
Found: MID

Lookup: Category of EALDFYGEVKT [PTEN_Y155_R159K] , please.
Found: HIGH

Lookup: Category of GSTLSYFGLAT [P2RX7_Y343_A348T] , please.
Found: HIGH

Lookup: Category of WKESWYSMRKM [FGB_Y475_G472E] , please.
Found: MID

* * *

List of phosphorylation enrichment values.
# System: c-Src
# PROCEDURE_SUMMARY: phosphorylation enrichment, bacterial display (enrichment ratio); higher = better substrate or ligand; peptides without Tyr show the background
// no unit, no text: just the number

| SEQ_STRING | phosphorylation enrichment |
| --- | --- |
| DGQVNYEEFVQ [CALM1_Y139] | 0.576 |
| NACGLYYKLHN [GATA2_Y376] | 1.54 |
| DAANNYARGHY [TUBA3E_Y103_S101N] | 0.442 |
| DSGKLYALDGL [INO80_Y1104_V1108G] | 1.17 |
| RRNTYYASIAK [ACADM_Y353] | 0.81 |
| MARDIYRASYY [ALK_Y1278] | 1.58 |
| KSRQIYDAYIM [GRK3_Y109_R104K] | 8.25 |
| VTVLDYDKIGK [SYT1_Y365] | 0.391 |

Lookup: Hello, I am looking for reported phosphorylation enrichment with c-Src for NVTGHYIPPFH [PPA2_Y59_S61P] . Could you help?
Found: 0.443

Lookup: Hello, I am looking for reported phosphorylation enrichment with c-Src for DPLLTYQFPPK [LMNA_Y481_R482Q] . Could you help?
Found: 1.54

Lookup: Hello, I am looking for reported phosphorylation enrichment with c-Src for KLNNEYLELNF [MME_Y497_YF] . Could you help?
Found: 0.843

Lookup: Hello, I am looking for reported phosphorylation enrichment with c-Src for GFEVVYVTEPI [HSP90AB1_Y512_M513V] . Could you help?
Found: 0.591

Lookup: Hello, I am looking for reported phosphorylation enrichment with c-Src for QGQHWYSSSDK [CASP10_Y9] . Could you help?
Found: 0.552

Lookup: Hello, I am looking for reported phosphorylation enrichment with c-Src for GKSDPYHATTG [GJA1_Y247_S251T] . Could you help?
Found: 0.361

Lookup: Hello, I am looking for reported phosphorylation enrichment with c-Src for NTCNRYCRDEI [ITGB3_Y660] . Could you help?
Found: 0.5

Lookup: Hello, I am looking for reported phosphorylation enrichment with c-Src for FSSLGYPLPEG [ZSWIM4_Y87_P89L_YF] . Could you help?
Found: 0.42

Lookup: Hello, I am looking for reported phosphorylation enrichment with c-Src for REVPVYISEDS [SYNM_Y460_G462S] . Could you help?
Found: 1.56

Lookup: Hello, I am looking for reported phosphorylation enrichment with c-Src for TQPSPYAVYLF [RPGRIP1_Y823_R827L] . Could you help?
Found: 5.65

Lookup: Hello, I am looking for reported phosphorylation enrichment with c-Src for GGQVFYNSEYG [FLT4_Y1333] . Could you help?
Found: 0.521

Lookup: Hello, I am looking for reported phosphorylation enrichment with c-Src for SVTCTYSPALK [TP53_Y126_N131K] . Could you help?
Found: 0.557

Lookup: Hello, I am looking for reported phosphorylation enrichment with c-Src for KKFVPYFDLFM [IPO5_Y530_E525K_YF] . Could you help?
Found: 0.526

Lookup: Hello, I am looking for reported phosphorylation enrichment with c-Src for KIVYVYVKKRS [DNAI2_Y7_E2K] . Could you help?
Found: 0.433

Lookup: Hello, I am looking for reported phosphorylation enrichment with c-Src for GSQERYFELVE [TSC2_Y407] . Could you help?
Found: 0.509
